molecular target: interaction between GST-MAGEA11 MHD and FAM-PCF11_4 peptide (MAGE-A11:PCF11) (Homo sapiens (Human), UniProt P43364); assay: TR-FRET dose response competition assay for disruption of MAGE-A11:PCF11 binding; details: Table 8, representative compounds; read-out: TR-FRET IC50
Sequence (P43364 218-429): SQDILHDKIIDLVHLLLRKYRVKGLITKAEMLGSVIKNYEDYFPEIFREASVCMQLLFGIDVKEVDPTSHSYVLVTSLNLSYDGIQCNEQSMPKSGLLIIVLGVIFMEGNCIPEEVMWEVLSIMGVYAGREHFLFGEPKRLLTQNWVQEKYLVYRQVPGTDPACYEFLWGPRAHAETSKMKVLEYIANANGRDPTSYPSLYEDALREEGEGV
Metric: pIC50
Numbers only, as −log10 of the molar value.

Worked set:
INSERT INTO measurements (compound, observed_result) VALUES
  ('COc1ccc(CNCCCNc2ccnc3cc(Cl)ccc23)cc1 [SJ000523059]', 4.16),
  ('CCc1ccc(OCc2ccccc2C(=O)Nc2ccc3nc(C)cc(N)c3c2)cc1 [SJ000855285]', 5.03),
  ('COc1ccc(F)cc1CNCCCNc1ccnc2cc(-c3ccc(C(C)(C)C)cc3)ccc12 [SJ000311289]', 5.69),
  ('COc1ccc(-c2ccc3c(NCCCNCc4cccc(OC)c4O)ccnc3c2)cc1 [SJ000311295]', 4.16),
  ('FC(F)(F)Oc1cccc(CNCCCNc2ccnc3cc(C(F)(F)F)ccc23)c1 [SJ000521045]', 4.16);

State the recorded pIC50 for every item in the following list.
1. COc1ccc(F)cc1CNCCCNc1ccnc2cc(Cc3c(Cl)cccc3Cl)ccc12 [SJ000311317]
2. COc1ccc(F)cc1CNCCCNc1ccnc2cc(Cc3ccc(F)cc3Cl)ccc12 [SJ000311325]
3. COc1cccc(CNCCCNc2ccnc3cc(-c4ccc(F)cc4)ccc23)c1O [SJ000311239]

1: 4.91; 2: 4.75; 3: 4.48

* * *

test: High throughput Caco-2 permeability; format: in vitro ADME; settings: human, Caco-2, pH 7.4, apical to basolateral, 10 μmol/l, 2 h, 37° C.; read-out: Caco-2 permeability, A/B
Metric: Papp at 2 h, 10 μmol/l

INSERT INTO assay_data (smiles_string, observed_result) VALUES
  ('FC(F)(F)c1ccc2c(NCCCNCc3ccc4c(c3)OCO4)ccnc2c1', '47 ×10⁻⁶ cm/s');

State the recorded Papp at 2 h, 10 μmol/l for every item in the following list.
1. CC(C)(C)c1ccc(-c2ccc3c(NCCCNCc4ccc5[nH]ccc5c4)ccnc3c2)cc1
2. FC(F)(F)c1cc(-c2ccc3c(NCCCNCc4ccc5[nH]ccc5c4)ccnc3c2)cc(C(F)(F)F)c1

["0.368 ×10⁻⁶ cm/s", "0.498 ×10⁻⁶ cm/s"]

* * *

target: MAGE-A11:PCF11 (Homo sapiens (Human), UniProt P43364); test: TR-FRET single point screening at 15 μM; type: binding; set-up: unit not given here; conditions: single point TR-FRET screening of quinoline compounds against MAGE-A11:PCF11; 15 μM
// NO strictly below 8 in TR-FRET signal; YES otherwise

INSERT INTO assay_data (smiles_string, label_value) VALUES
  ('CCC(CC)CNCCCNc1ccnc2cc(C(F)(F)F)ccc12', 'YES'),
  ('CCCN(CCCNc1ccnc2cc(Cl)ccc12)Cc1ccco1', 'NO'),
  ('CCCN(CCCNc1ccnc2cc(Cl)ccc12)Cc1cccc(F)c1', 'YES'),
  ('Cc1ccc(CNCCCNc2ccnc3cc(Cl)ccc23)s1', 'YES'),
  ('CCCN(CCCNc1c2ccc(Cl)cc2nc2ccc(OC)cc12)Cc1cc(OC(F)(F)F)ccc1OC', 'NO');

Decide: TR-FRET signal of CCCN(CCCNc1c2ccc(Cl)cc2nc2ccc(OC)cc12)Cc1cccnc1Br >= 8? NO

Decide: TR-FRET signal of CCCN(CCCCCC(=O)OC)CCCNc1ccnc2cc(C(F)(F)F)ccc12 >= 8? NO

Decide: TR-FRET signal of CCCN(CCCNc1ccnc2cc(Cl)ccc12)Cc1c(C)cc(C)cc1C >= 8? YES

* * *

Could you please report measured pIC50 for the items listed next?
molecular target: interaction between GST-MAGEA11 MHD and FAM-PCF11_4 peptide (MAGE-A11:PCF11) (Homo sapiens (Human)); experiment: TR-FRET dose response competition assay for disruption of MAGE-A11:PCF11 binding; conditions: Dose response TR-FRET screening of nine scaffold groups against MAGE-A11:PCF11; read-out: consensus IC50
Give bare numbers, as −log10 of the molar value.

Worked set:
INSERT INTO assay_data (molecule, observed_result) VALUES
  ('COc1ccc(F)cc1CNCCCNc1ccnc2cc(Cc3cccc(C(F)(F)F)c3)ccc12', 4.65),
  ('O=C(Cn1cnc2cc(-c3ccc(Cl)cc3)sc2c1=O)NCc1ccccc1F', 4.16);

State the recorded pIC50 for every item in the following list.
1. COc1ccc(-c2cc3ncn(CC(=O)NCc4ccccc4F)c(=O)c3s2)cc1
2. Fc1ccccc1CNCCCNc1ccnc2cc(Cl)ccc12
3. CCn1c2ccccc2c2cc(CN3CCN(C)CC3)ccc21
4. CC1CN(c2oc(-c3ccc(F)cc3)nc2C#N)CC(C)O1 (stereo not drawn)
5. CCCn1c(=O)c2nc(-c3ccc(S(=O)(=O)O)cc3)[nH]c2n(CCC)c1=O

4.16
4.16
4.16
4.16
4.16

* * *

Could you please report measured TR-FRET signal for the items listed next?
Target: MAGE-A11:PCF11 (Homo sapiens (Human), UniProt P43364)
Assay: TR-FRET single point screening at 15 μM
Assay type: binding
Set-up: unit not given here
Conditions: single point TR-FRET screening of quinoline compounds against MAGE-A11:PCF11; 15 μM
Text: TR-FRET Assays and High-throughput Screen. Terbium-anti-GST antibody, 1 M Tris pH 7.5 1 M MgCl2 and 1 M DTT were purchased from Invitrogen (Carlsbad, CA), BSA was purchased from Sigma (St. Louis, MO). Dimethyl sulfoxide (DMSO) was purchased from Fisher Scientific (Pittsburgh, PA). Black 384-well low volume plates and 384-well polypropylene compound plates were purchased from Corning Incorporated (Tewksbury, MA). […]
Answers are plain numbers.

Worked set:
INSERT INTO measurements (compound, observed_result) VALUES
  ('Clc1ccc2c(NCCCNCc3ccccn3)ccnc2c1', 4.744),
  ('FC(F)(F)c1cccc(Cc2ccc3c(NCCCNCc4ccco4)ccnc3c2)c1', 27.01),
  ('c1ccc(CCc2ccc3c(NCCCNCc4ccco4)ccnc3c2)cc1', 15.95),
  ('CCCN(CCCNc1ccnc2cc(Cl)ccc12)Cc1ccc([N+](=O)[O-])o1', 9.575),
  ('N#Cc1ccc(Cc2ccc3c(NCCCNCc4ccco4)ccnc3c2)cc1', 20.43),
  ('CCOC(=O)c1cnc2c(C(F)(F)F)cccc2c1NCCCN1CCOCC1', 10.06),
  ('CCCN(CCCNc1ccnc2cc(C(F)(F)F)ccc12)Cc1scnc1C', 5.164),
  ('CCCN(CCCNc1ccnc2cc(Cl)ccc12)CCC(C)c1ccccc1 (stereo not drawn)', 24.98);

Kindly indicate its recorded TR-FRET signal. Item: CCCN(CCCNc1ccnc2cc(Cl)ccc12)Cc1scnc1C 11.85

* * *

biological target: MAGE-A11:PCF11 (Homo sapiens (Human), UniProt P43364); assay: TR-FRET single point screening at 15 μM; type: binding; design: unit not given here; conditions: single point TR-FRET screening at 15 μM against MAGE-A11:PCF11
Metric: TR-FRET signal

INSERT INTO results (molecule, metric, observed_result) VALUES
  ('CCOC(=O)c1cnc2c(C(=O)OC)cccc2c1NCCN1CCOCC1 [SJ000184799]', 'TR-FRET signal', 4.043),
  ('FC(F)(F)Oc1ccc(CN(CCCCNc2ccnc3cc(Cl)ccc23)Cc2ccccc2)cc1 [SJ000520451]', 'TR-FRET signal', 39.87),
  ('CCN1CCN(c2c(S(=O)(=O)c3ccc(C)c(C)c3)cnc3ccc(OC)cc23)CC1 [SJ000247335]', 'TR-FRET signal', '−4.579');

State the recorded TR-FRET signal for every item in the following list.
1. Cc1ccc(S(=O)(=O)c2cnc3ccc(C)cc3c2N2CCN(c3ccc(F)cc3)CC2)cc1 [SJ000117058]
2. COc1ccc2nc3cc(Cl)ccc3c(NCCCNCc3cc(Br)cs3)c2c1 [SJ000520996]
3. COc1ccc(C(F)(F)F)cc1CN(CCCCNc1ccnc2cc(Cl)ccc12)Cc1ccccc1 [SJ000520444]
4. CCCN(CCCNc1c2ccc(Cl)cc2nc2ccc(OC)cc12)Cc1ccsc1 [SJ000520922]

−4.068
−287.6
31.82
−258

Kindly indicate its recorded TR-FRET signal. Item: CCOc1ccc2ncc(C(=O)c3ccc(C)cc3)c(N3CCN(C)CC3)c2c1 [SJ000247254] −10.61

* * *

Could you please report measured TR-FRET signal for the items listed next?
target: MAGE-A11:PCF11 (Homo sapiens (Human), UniProt P43364); assay: TR-FRET single point screening at 15 μM; assay type: binding; set-up: unit not given here; details: single point TR-FRET screening at 15 μM against MAGE-A11:PCF11
Numbers only.

Worked set:
INSERT INTO assay_data (compound, observed_result) VALUES
  ('Cc1ccc(S(=O)(=O)c2cnc3ccccc3c2N2CCN(c3cc(C)ccc3C)CC2)cc1', 2.443),
  ('C=CCOCC(O)CN1CCN(c2cc(C(F)(F)F)nc3ccccc23)CC1 (centres unmarked)', '−2.128'),
  ('CCCN(CCCNc1c2ccc(Cl)cc2nc2ccc(OC)cc12)Cc1ccc(-c2ccccc2[N+](=O)[O-])o1', '−102.8'),
  ('COc1ccc2ncc(S(=O)(=O)c3ccc(Cl)cc3)c(N3CCN(C)CC3)c2c1', '−3.658'),
  ('CCCN(CCCNc1c2ccc(Cl)cc2nc2ccc(OC)cc12)Cc1ccc2c(c1)OCO2', '−193.5'),
  ('COc1ccc2nc3cc(Cl)ccc3c(NCCCNCCC(C)(C)C)c2c1', '−456.3'),
  ('CN(C)c1ccc(CN2CCC(Nc3ccnc4cc(Cl)ccc34)CC2)cc1', 13.09),
  ('Clc1ccc2c(NCCCCN(Cc3ccccc3)Cc3ccsc3)ccnc2c1', 16.3);

State the recorded TR-FRET signal for every item in the following list.
1. O=C(C[C@H]1CC[C@]2(CC1)OO[C@]1(O2)C2CC3CC(C2)CC1C3)NCCCCNc1ccnc2cc(Cl)ccc12
2. Clc1ccc2c(NCCCCN(Cc3ccccc3)Cc3cccs3)ccnc2c1
3. CCCCCN(CCC)CCCNc1c2ccc(Cl)cc2nc2ccc(OC)cc12
4. Fc1cccc(C(F)(F)F)c1CN(CCCCNc1ccnc2cc(Cl)ccc12)Cc1ccccc1
5. O=S(=O)(c1ccc(F)cc1)N1CCN(c2ccnc3cc(Cl)ccc23)CC1
6. COc1ccc2ncc(S(=O)(=O)c3ccc(C)c(C)c3)c(N3CCN(c4ccccc4F)CC3)c2c1

1. 25.12
2. 25.05
3. −210.3
4. 28.75
5. −50.64
6. −8.289

State the recorded TR-FRET signal for every item in the following list.
1. CCCNCCCNc1c2ccc(Cl)cc2nc2ccc(OC)cc12
2. CCOc1ccc2ncc(S(=O)(=O)c3ccc(C)c(C)c3)c(N3CCN(CC)CC3)c2c1
3. CCOc1ccc2ncc(S(=O)(=O)c3ccc(C)cc3)c(N3CCN(c4ccccc4F)CC3)c2c1

1: −498.5; 2: −13.39; 3: 5.159
